Give measured GFP response vs DMSO for each item. Keep answers brief.
- PROCEDURE DETAILS: RPL19A-GFP modulators, yeast TOR pathway, confirmation, cell-based, S. cerevisiae, flow cytometry, cherry picks, mother/daughter gates (AID 2270)
- MEASUREMENT SETUP: S. cerevisiae RPL19A-GFP strain, 3 h, measured here: mother cell gate, at 10 µM, stronger effect = lower value, 100 = same GFP as DMSO wells
Please format your answer as a value with the unit trailing.

Quick check: GFP response vs DMSO of COC(=O)Cc1ccc(OCc2ccc(Cl)nc2)cc1 ?
98.6%

Do the same for Cc1cccn2c(=O)c(/C=C(\C#N)C(=O)NCc3ccccc3)c(N3CCC(C(N)=O)CC3)nc12 please
97.5%

Do the same for CCCn1nc(C(=O)OCC(=O)c2ccc3c(c2)NC(=O)CO3)c2ccccc2c1=O please
96.5%

Do the same for COc1ccc(C(=O)NC(=S)NNC(=O)CCc2ccccc2)cc1 please
106%

Do the same for Cc1nc(Sc2ccc(Cl)cc2)c(C#N)c(C)c1[N+](=O)[O-] please
98.2%

Do the same for COc1ccc(N2C(=O)C(Cl)=C(Nc3ccccc3O)C2=O)cc1 please
100%

Do the same for COC(=O)Cn1cc(/C=C/c2cc[n+](C)cc2)c2ccccc21 please
98.2%

Do the same for O=C1ON=C(c2ccccc2)/C1=C\c1ccco1 please
87%

Do the same for O=C(NCc1ccccc1)c1nc(S(=O)(=O)Cc2ccccc2)ncc1Cl please
98.5%

Do the same for CC(=O)c1ccc(N2CCN(C(=O)c3ccc(Br)cc3)CC2)c(F)c1 please
110%

Do the same for O=C(/C=C/Sc1ncn[nH]1)c1ccc(Cl)cc1 please
99.8%
